Data origin, for the record: the RNAGym collection of RNA variant scans (doi:10.7554/elife.90254)

B1: LINE1-full (parent)
chain: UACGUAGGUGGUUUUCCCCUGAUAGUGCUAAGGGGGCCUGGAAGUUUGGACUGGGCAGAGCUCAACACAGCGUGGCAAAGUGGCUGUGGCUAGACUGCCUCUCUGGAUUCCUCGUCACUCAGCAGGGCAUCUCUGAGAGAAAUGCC

# Variants of: B1
# assaySummary: self-cleavage, relative activity (ratio to wild type); higher = more cleavage; in vitro, sequencing; the parent is a self-cleaving ribozyme
parameter: self-cleavage
Format: numeric value only, no unit, no commentary.

Sample U112C C131U ; self-cleavage observed: 1.87

Sample U26C U73A ; self-cleavage observed: 1.48

Sample U52A C146A ; self-cleavage observed: 1.16

Sample U29A A69U ; self-cleavage observed: 0.07

Sample C103G ; self-cleavage observed: 1.25

Sample U52A G106C ; self-cleavage observed: 1.84

Sample C71U A141G ; self-cleavage observed: 0.68

Sample U14C U26A ; self-cleavage observed: 0.95

Sample A6G A42G ; self-cleavage observed: 1.15

Sample U73A C98U ; self-cleavage observed: 0.32

Sample U14C A94G ; self-cleavage observed: 0.31

Sample U52C U87C ; self-cleavage observed: 0.11

Sample A92G U100C ; self-cleavage observed: 0.14

Sample G55A A138G ; self-cleavage observed: 0.51

Sample U9A U87G ; self-cleavage observed: 0.23

Sample U91G C111U ; self-cleavage observed: 0.02
